- study target: Fuc(a1-2)Gal(b1-3)GalNAc(a1-3)[Fuc(a1-2)]Gal(b1-4)GlcNAc
- assay protocol: glycan array binding signal (z-score within array); higher = stronger binding
- condition parameters: glycan notation: IUPAC condensed, linker removed
This excerpt belongs to a sample that is enriched for the strongest signals.
Quick list: glycan array binding signal (z-score) per entry.
Please reply with the value in numeric form only.

# annotated cases, reported glycan array binding signal (z-score) shown
binder: SJCP1531 (Schistosoma japonicum) (protein) MFKVRIINLVNISTVLLLINLLQTKSQVNVEQLVTVLEVNIKAQLKNKTTEVLVEWNPLYQDNSMPEYRKLLDETCKLFLPFVNEKVPPSTYGGECTNANFSEAPQDGSYSRVNAELRLIYKYSDNPQIQTDRLQDDLNDREEFITSESSFVAYNPKFTVKIEKLFIPISESQTTPPPTTAKNDASKKDDDDNGGEDSKAPIDTFAMTASGNKGKKDDDDNGGEDSKAPIDTFAMTASGSKDERSTWTIIGIITLVVLIFVVIGGGITVFVKRC
reported result: -0.571

binder: EfCBM33A (Enterococcus faecalis), Q838S1 (protein) MKKSLLTIVLAFSFVLGGAALAPTVSEAHGYVASPGSRAFFGSSAGGNLNTNVGRAQWEPQSIEAPKNTFITGKLASAGVSGFEPLDEQTATRWHKTNITTGPLDITWNLTAQHRTASWDYYITKNGWNPNQPLDIKNFDKIASIDGKQEVPNKVVKQTINIPTDRKGYHVIYAVWGIGDTVNAFYQAIDVNIQ
reported result: -0.436

binder: Epa20 (Candida glabrata) (protein) MGSSHHHHHHSSGLVPRGSHMASSNIPNNYPLGCSNKYSGHLPGLKMELYSYNYVNPRHPDPQNPGKLDQLYDPNLLGTYECFDSSYKDINYPRVGYKSKTLIGRSDGVSGILNFNFVPPWGCMPQKGQLPPAYNFKSNITLSNFTMILFGYFKPKISGNHIFSLHGDDLIYLNFGAGNAFDCCRQESSADNFGNYQAFSLWGINWEKKTLTVYLDMNTYYPIRIFYNNRDYQAIFNFSFKTEFDSSPVIDFQDYFFFLRDIDGGCPGEV
reported result: -0.278

binder: Ecp6 (Cladosporium fulvum), B3VBK9 (protein) MQSMILFAAALMGAAVNGFVLPRTDDPDCETKATDCGSTSNIKYTVVKGDTLTSIAKKFKSGICNIVSVNKLANPNLIELGATLIIPENCSNPDNKSCVSTPAEPTETCVPGLPGSYTIVSGDTLTNISQDFNITLDSLIAANTQIENPDAIDVGQIITVPVCPSSQCEAVGTYNIVAGDLFVDLAATYHTTIGQIKALNNNVNPSKLKVGQQIILPQDCKNVTTAVA
reported result: -0.099

The measured glycan array binding signal (z-score) associated with LecB PA14 (Pseudomonas aeruginosa) (protein) MATQGVFTLPANTQFGVTAFANSAGTQTVNVQVNNETVATFTGQSTNNAIIGSKVLNSGGGGKVQILVSVNGRSSDLVSAQVILANELNFALVGSEDSTDNDYNDAVVVINWPLG reads 0.586
